These entries and their values trace back to the supplement of paper PMC4166925.

System: SpTbr T-box DNA-binding domain (GST fusion);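 also: protein at 200 nM in PBS on universal double-stranded arrays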
Sequence: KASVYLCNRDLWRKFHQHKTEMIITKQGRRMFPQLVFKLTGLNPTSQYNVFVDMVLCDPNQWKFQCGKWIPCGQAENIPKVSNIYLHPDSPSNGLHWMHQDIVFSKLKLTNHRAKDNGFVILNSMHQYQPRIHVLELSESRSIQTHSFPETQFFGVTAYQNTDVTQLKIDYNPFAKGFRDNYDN
ASSAY PROTOCOL: PBM E-score of 8-mer (E-score (dimensionless, -0.5 to 0.5)); Tbr is Tbrain of the sea star Patiria miniata (Pm) or the sea urchin Strongylocentrotus purpuratus (Sp); higher = stronger binding preference
MEASUREMENT CONDITIONS: the construct has about 5 more residues each side
Whole data set: some 33,000 sequences, median “E-score (dimensionless, -0.5 to 0.5)” near -0.046, cut for the highest 2% near 0.36. Many of the other results were omitted from the sample, so the highest values are more common in it than they were.
Please enter fulfilled where PBM E-score of 8-mer is greater than or equal to 0.1, and not fulfilled where it is lower.

>  <SEQUENCE DATA>
CACATTCA

>  <LABEL VALUE>
fulfilled

$$$$
>  <SEQUENCE DATA>
ATTGTCGC

>  <LABEL VALUE>
fulfilled

$$$$
>  <SEQUENCE DATA>
ACCTCCCT

>  <LABEL VALUE>
not fulfilled

$$$$
>  <SEQUENCE DATA>
AAGGCGTG

>  <LABEL VALUE>
fulfilled

$$$$
>  <SEQUENCE DATA>
AACACCGT

>  <LABEL VALUE>
fulfilled

$$$$
>  <SEQUENCE DATA>
GGTGTCGA

>  <LABEL VALUE>
fulfilled

$$$$
>  <SEQUENCE DATA>
CACCTGGA

>  <LABEL VALUE>
fulfilled

$$$$
>  <SEQUENCE DATA>
ATGTCACG

>  <LABEL VALUE>
fulfilled

$$$$
>  <SEQUENCE DATA>
CTGACATC

>  <LABEL VALUE>
not fulfilled

$$$$
>  <SEQUENCE DATA>
ACTACTCC

>  <LABEL VALUE>
not fulfilled

$$$$
>  <SEQUENCE DATA>
CGTAGGAA

>  <LABEL VALUE>
not fulfilled

$$$$
>  <SEQUENCE DATA>
AGTCACGG

>  <LABEL VALUE>
not fulfilled

$$$$
>  <SEQUENCE DATA>
AGTCCTGG

>  <LABEL VALUE>
not fulfilled

$$$$
>  <SEQUENCE DATA>
AGAGGAGC

>  <LABEL VALUE>
not fulfilled

$$$$
>  <SEQUENCE DATA>
CGACCATC

>  <LABEL VALUE>
not fulfilled

$$$$
>  <SEQUENCE DATA>
CTGACACC

>  <LABEL VALUE>
fulfilled

$$$$
>  <SEQUENCE DATA>
GATGTCCA

>  <LABEL VALUE>
not fulfilled

$$$$
>  <SEQUENCE DATA>
GCAATACA

>  <LABEL VALUE>
not fulfilled

$$$$
>  <SEQUENCE DATA>
AACACCTG

>  <LABEL VALUE>
fulfilled

$$$$
>  <SEQUENCE DATA>
AGACTCTC

>  <LABEL VALUE>
not fulfilled

$$$$
>  <SEQUENCE DATA>
CACGGTTA

>  <LABEL VALUE>
not fulfilled

$$$$
>  <SEQUENCE DATA>
GAGTTAGC

>  <LABEL VALUE>
not fulfilled

$$$$
>  <SEQUENCE DATA>
ATTCACGA

>  <LABEL VALUE>
fulfilled

$$$$
>  <SEQUENCE DATA>
GGCAACAC

>  <LABEL VALUE>
fulfilled

$$$$
>  <SEQUENCE DATA>
AGCACTCA

>  <LABEL VALUE>
not fulfilled

$$$$
>  <SEQUENCE DATA>
ATTCTACA

>  <LABEL VALUE>
not fulfilled

$$$$
>  <SEQUENCE DATA>
CTTTTCGA

>  <LABEL VALUE>
not fulfilled

$$$$
>  <SEQUENCE DATA>
AACACCGG

>  <LABEL VALUE>
fulfilled

$$$$
>  <SEQUENCE DATA>
AGCAGGTC

>  <LABEL VALUE>
not fulfilled

$$$$
>  <SEQUENCE DATA>
CGTTGAAG

>  <LABEL VALUE>
not fulfilled

$$$$
>  <SEQUENCE DATA>
ACTCTTCT

>  <LABEL VALUE>
not fulfilled

$$$$
>  <SEQUENCE DATA>
GCGTCAAC

>  <LABEL VALUE>
fulfilled

$$$$
>  <SEQUENCE DATA>
AGCAACAG

>  <LABEL VALUE>
not fulfilled

$$$$
>  <SEQUENCE DATA>
ATAGGCTG

>  <LABEL VALUE>
not fulfilled

$$$$
>  <SEQUENCE DATA>
AGCAAAAT

>  <LABEL VALUE>
not fulfilled

$$$$
>  <SEQUENCE DATA>
GGCAACAA

>  <LABEL VALUE>
fulfilled

$$$$
>  <SEQUENCE DATA>
GCGTCAAA

>  <LABEL VALUE>
fulfilled

$$$$
>  <SEQUENCE DATA>
ATGTCATA

>  <LABEL VALUE>
not fulfilled

$$$$
>  <SEQUENCE DATA>
GCGGTGTA

>  <LABEL VALUE>
not fulfilled

$$$$
>  <SEQUENCE DATA>
AAACTTCT

>  <LABEL VALUE>
not fulfilled

$$$$
>  <SEQUENCE DATA>
CCGTCAAC

>  <LABEL VALUE>
fulfilled

$$$$
>  <SEQUENCE DATA>
ATGTCACA

>  <LABEL VALUE>
fulfilled

$$$$
>  <SEQUENCE DATA>
CCACTTCA

>  <LABEL VALUE>
fulfilled

$$$$
>  <SEQUENCE DATA>
GAGGTGTA

>  <LABEL VALUE>
fulfilled

$$$$
>  <SEQUENCE DATA>
ACCAGCTA

>  <LABEL VALUE>
not fulfilled

$$$$
>  <SEQUENCE DATA>
CCGGTGTA

>  <LABEL VALUE>
fulfilled

$$$$
>  <SEQUENCE DATA>
ACGGCGTG

>  <LABEL VALUE>
fulfilled

$$$$
>  <SEQUENCE DATA>
CTGTCATA

>  <LABEL VALUE>
fulfilled

$$$$
>  <SEQUENCE DATA>
ATCCAGAG

>  <LABEL VALUE>
not fulfilled

$$$$
>  <SEQUENCE DATA>
GAGTTTGA

>  <LABEL VALUE>
not fulfilled

$$$$
>  <SEQUENCE DATA>
ATCAGGTG

>  <LABEL VALUE>
fulfilled

$$$$
>  <SEQUENCE DATA>
AGTCACGA

>  <LABEL VALUE>
fulfilled

$$$$
>  <SEQUENCE DATA>
ACGGTGTG

>  <LABEL VALUE>
fulfilled

$$$$
>  <SEQUENCE DATA>
CAGAGGAG

>  <LABEL VALUE>
not fulfilled

$$$$
>  <SEQUENCE DATA>
ATTGTCGA

>  <LABEL VALUE>
not fulfilled

$$$$
>  <SEQUENCE DATA>
GAGTTACC

>  <LABEL VALUE>
fulfilled

$$$$
>  <SEQUENCE DATA>
GAGCCAGC

>  <LABEL VALUE>
not fulfilled

$$$$
>  <SEQUENCE DATA>
ACAGATGT

>  <LABEL VALUE>
fulfilled

$$$$
>  <SEQUENCE DATA>
AGTTCTGA

>  <LABEL VALUE>
not fulfilled

$$$$
>  <SEQUENCE DATA>
AAGTTAAA

>  <LABEL VALUE>
not fulfilled

$$$$
>  <SEQUENCE DATA>
ATGACACC

>  <LABEL VALUE>
fulfilled

$$$$
>  <SEQUENCE DATA>
CTTCACGA

>  <LABEL VALUE>
fulfilled

$$$$
>  <SEQUENCE DATA>
CTTCACGC

>  <LABEL VALUE>
fulfilled

$$$$
>  <SEQUENCE DATA>
AAGGCGTA

>  <LABEL VALUE>
fulfilled

$$$$
>  <SEQUENCE DATA>
ACTTGATA

>  <LABEL VALUE>
fulfilled

$$$$
>  <SEQUENCE DATA>
ATAGAGTC

>  <LABEL VALUE>
not fulfilled

$$$$
>  <SEQUENCE DATA>
CAAGTAGA

>  <LABEL VALUE>
not fulfilled

$$$$
>  <SEQUENCE DATA>
CGTGTCGA

>  <LABEL VALUE>
fulfilled

$$$$
>  <SEQUENCE DATA>
CTGACAGC

>  <LABEL VALUE>
fulfilled

$$$$
>  <SEQUENCE DATA>
ACGTGTCC

>  <LABEL VALUE>
not fulfilled

$$$$
>  <SEQUENCE DATA>
AAACTTCG

>  <LABEL VALUE>
not fulfilled

$$$$
>  <SEQUENCE DATA>
AACAGGTG

>  <LABEL VALUE>
fulfilled

$$$$
>  <SEQUENCE DATA>
AAGGTGTA

>  <LABEL VALUE>
fulfilled

$$$$
>  <SEQUENCE DATA>
TGAAACCA

>  <LABEL VALUE>
not fulfilled

$$$$
>  <SEQUENCE DATA>
CAGATGCG

>  <LABEL VALUE>
not fulfilled

$$$$
>  <SEQUENCE DATA>
AGTGTCGC

>  <LABEL VALUE>
fulfilled

$$$$
>  <SEQUENCE DATA>
AAGACCTT

>  <LABEL VALUE>
not fulfilled

$$$$
>  <SEQUENCE DATA>
ATCAGGTA

>  <LABEL VALUE>
not fulfilled

$$$$
>  <SEQUENCE DATA>
CGTGTCGC

>  <LABEL VALUE>
fulfilled

$$$$
>  <SEQUENCE DATA>
TCACTTCA

>  <LABEL VALUE>
fulfilled

$$$$
>  <SEQUENCE DATA>
CCACTTCC

>  <LABEL VALUE>
not fulfilled

$$$$
>  <SEQUENCE DATA>
AGACTCGA

>  <LABEL VALUE>
not fulfilled

$$$$
>  <SEQUENCE DATA>
TATATCAA

>  <LABEL VALUE>
not fulfilled

$$$$
>  <SEQUENCE DATA>
CAGGCGTC

>  <LABEL VALUE>
fulfilled

$$$$
>  <SEQUENCE DATA>
ATTTGTGA

>  <LABEL VALUE>
fulfilled

$$$$
>  <SEQUENCE DATA>
ACACTTCT

>  <LABEL VALUE>
fulfilled

$$$$
>  <SEQUENCE DATA>
GTGTCACA

>  <LABEL VALUE>
fulfilled

$$$$
>  <SEQUENCE DATA>
ACGTGTCG

>  <LABEL VALUE>
fulfilled

$$$$
>  <SEQUENCE DATA>
ACGGTGTA

>  <LABEL VALUE>
fulfilled

$$$$
>  <SEQUENCE DATA>
AAGGCGTC

>  <LABEL VALUE>
fulfilled

$$$$
>  <SEQUENCE DATA>
AGCAGGTA

>  <LABEL VALUE>
not fulfilled

$$$$
